- ASSAY REMARKS: qHTS Assay for Lipid Storage Modulators in Drosophila S3 Cells
- CONDITION INFO: BODIPY lipid droplet fluorescence, 18-24 h, cells fed with added oleic acid; series mostly up to 46.1 µM
In all, about 320,000 compounds went through this assay and about 2,100 (0.66%) were called active. About 53% were inconclusive and are not listed. Calls come from the whole dose curve; as a rule, active = well fitted inhibition curve with a large enough effect in the signal ratio, with a control signal flat (not every such curve was filed as active); inconclusive = small, poorly fitted or top-dose-only effect, or effect the other way, or a change in a side signal; inactive = flat fitted curve, though single readings scatter; the % refers to the signal ratio. This is one part of a sample in which actives are shown more often than they occur.
Entry note: the call must match one of active, inactive

Example results:
Cc1cc(C)c(S(=O)(=O)N2CCOC2CNC(=O)C(=O)NCCCN2CCOCC2)c(C)c1 (stereo not drawn) : inactive
NC(=O)N/N=C/c1cn(-c2ccccc2)nc1-c1ccccc1 : inactive
CCOc1ncccc1-c1nc(-c2cccs2)no1 : inactive

State the result this test recorded for CCC(=O)N1CCN(c2ccc(Cl)cc2NC(=O)c2ccc([N+](=O)[O-])o2)CC1 . active

Please let me know the test result on file for O=C(NCc1csc2ccc(Cl)cc12)Nc1ccccc1 . inactive

State the result this test recorded for Cc1ccc(NC(=S)N2CCN(Cc3ccccc3)CC2)c(C)c1 . inactive

Outcome? CCN(Cc1ccncc1)C(=O)c1cc(COc2ccc(F)cc2F)on1 inactive

So what was the verdict on O=C(Nc1cc(Cl)ccc1-n1cncn1)c1ccc([N+](=O)[O-])o1 in this test? inactive

Per the assay record, what outcome was assigned to CCOc1cccc(C(=O)Nc2ccc3ccccc3c2)c1 ? inactive

###

- ASSAY REMARKS: qHTS Assay for Lipid Storage Modulators in Drosophila S3 Cells
- CONDITION INFO: BODIPY lipid droplet fluorescence, 18-24 h, cells fed with added oleic acid; series mostly up to 46.1 µM
Hit rate of the full screen: of about 320,000 compounds, about 2,100 (0.66%) were called active. About 53% were inconclusive and are not listed. Calls come from the whole dose curve; as a rule, active = well fitted inhibition curve with a large enough effect in the signal ratio, with a control signal flat (not every such curve was filed as active); inconclusive = small, poorly fitted or top-dose-only effect, or effect the other way, or a change in a side signal; inactive = flat fitted curve, though single readings scatter; the % refers to the signal ratio. The full list was thinned out, with actives kept by preference.
Hello, when you answer, please use one of the following outcomes: active, inactive

Worked examples follow.
C=CCn1c(CCNC(=O)c2ccc(Cl)c(Cl)c2)nnc1SCCOc1ccc(OC)cc1 : inactive
O=C(NCc1ccco1)C(c1ccc(F)cc1)N(CC1CCCO1)C(=O)Cn1nnc2ccccc21 (stereo unspecified) : inactive
O=c1[nH]cnc2scc(-c3ccccc3)c12 : inactive
Cc1ccccc1C(=O)NC1CCN(CC(=O)NCc2ccccc2)CC1 : inactive
CCC(C)[C@H](NC(=O)NCCCN1CCOCC1)C(=O)OC (stereo partly specified) : inactive

Please state the recorded outcome for this compound: COc1cc(S(=O)(=O)NCc2ccccc2)ccc1F inactive

Tell me the recorded outcome of this test for Cc1ccccc1C(=O)NC1CCN(C(=O)Nc2ccc(F)cc2)CC1 . inactive

I would be grateful if you could indicate the recorded call for Cc1cc(C)n2c(SCC(C)C)nnc2n1 . inactive

Please indicate how the test categorized COC(=O)c1ccccc1Oc1ccc(NC(=O)CCCl)cc1 . inactive

Dear colleague, could you share the recorded outcome for CC1CC(=O)Nc2ccccc2N1C(=O)CSc1ncnc2sccc12 (stereo unspecified) when you have a moment? inactive

###

- ASSAY REMARKS: qHTS Assay for Lipid Storage Modulators in Drosophila S3 Cells
- CONDITION INFO: BODIPY lipid droplet fluorescence, 18-24 h, cells fed with added oleic acid; series mostly up to 46.1 µM
In all, about 320,000 compounds went through this assay and about 2,100 (0.66%) were called active. Roughly 53% stayed inconclusive and do not appear here. The call rests on the fitted dose curve; in most records, active means well fitted inhibition curve with a large enough effect in the signal ratio, with a control signal flat (not every such curve was filed as active); inconclusive means small, poorly fitted or top-dose-only effect, or effect the other way, or a change in a side signal; inactive means flat fitted curve, though single readings scatter; the % refers to the signal ratio. Shown is part of a subset that was picked to be rich in actives.
Would you mind answering with one of these outcomes? class 1 = active, class 0 = inactive

Some entries whose results are on file:
Cc1cc(NC(=O)CN2C(=O)NC3(CCC(C)CC3)C2=O)no1 (stereo not given) : class 0
COc1ccccc1CN1CCCC(C(=O)N2CCCCC2)C1 (stereo not given) : class 0
COc1ccc(OC)c(S(=O)(=O)N2CCC(C(=O)N3CCCCCC3)CC2)c1 : class 0
COc1ccc(OC)c(S(=O)(=O)N2CCCC(C(=O)N3CCCCCC3)C2)c1 (stereo not given) : class 1
COc1ccc(S(=O)(=O)N2CCCC(C(=O)N3CCCCCC3)C2)cc1 (stereo not given) : class 0

// param item: COc1ccc(OC)c(S(=O)(=O)N2CCC(C(=O)N3CCN(Cc4ccccc4)CC3)CC2)c1 ; yields the recorded call class 1

Please state the recorded outcome for this compound: COc1ccc(OC)c(NC(=O)c2cc3n(n2)C(C(F)(F)F)CC(c2ccc4c(c2)OCO4)N3)c1 (stereo not given) class 0

// outcome(item) with item = COc1ccc(OC)c(S(=O)(=O)N2CCC(C(=O)N3CCOCC3)CC2)c1 class 0

I would be grateful if you could indicate the recorded call for COc1ccc(NC(=O)c2cc3n(n2)C(C(F)(F)F)CC(c2ccc4c(c2)OCO4)N3)cc1OC (stereo not given) . class 1

Record request — test call for COc1cc(OC)c(OC)cc1CN1CCCC(C(=O)N2CCCCC2)C1 (stereo not given) class 0

###

- ASSAY REMARKS: qHTS Assay for Lipid Storage Modulators in Drosophila S3 Cells; note: potency is the fitted concentration of half-maximal effect
- CONDITION INFO: BODIPY lipid droplet fluorescence, 18-24 h, cells fed with added oleic acid; series mostly up to 46.1 µM
About 2,100 (0.66%) of roughly 320,000 compounds were called active. Roughly 53% stayed inconclusive and do not appear here. The sample holds actives, similar compounds and a random draw of the others, so the mix is not that of the screen.
PROPERTY: Potency

O=C(CCNC(=O)c1ccccc1Cl)Nc1nc2ccccc2s1 : inactive
CC(=O)c1ccc(NC2OC(CO)C(O)C(O)C2O)cc1 (stereo unspecified) : 32.6 µM (active)
COc1ccc2nc(NC(=O)CCNC(=O)c3ccco3)sc2c1 : 8.2 µM (active)
COc1ccc2nc(NC(=S)NC(=O)c3ccco3)sc2c1 : inactive
O=C(NNc1nc2c(F)cccc2s1)c1cc(=O)c2ccccc2o1 : inactive

The compound identified as O=C(Cc1ccccc1)Nc1nc2ccccc2s1 registered its Potency at inactive

###

- ASSAY REMARKS: qHTS Assay for Lipid Storage Modulators in Drosophila S3 Cells;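 for cell number change: cells counted by Cell Tracker Red CMTPX staining in the red channel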
- CONDITION INFO: BODIPY lipid droplet fluorescence, 18-24 h, cells fed with added oleic acid; measured here: cell count max response
Hit rate of the full screen: of about 320,000 compounds, about 2,100 (0.66%) were called active. Inconclusive results (about 53%) are left out. The sample as a whole holds a higher share of actives than the screen did.
Measured cell number change, listed per entry.
# number only, unit % dropped from output

COc1ccc(C(=O)Nc2nc(-c3ccccc3)c(C(C)=O)s2)c(OC)c1 : -8.6
O=C(CCCc1nc2ccccc2s1)N1CCN(c2ccccc2F)CC1 : 22.1
CCOC(=O)C(C)(C)N(Cc1ccc(Cl)cc1)S(=O)(=O)c1ccc(Cl)c([N+](=O)[O-])c1 : 5.39
O=S(=O)(Nn1cnnc1)c1ccc2ccccc2c1 : -5.21

Now for another entry.
Lab note: Cc1ccccc1NC(=O)CSc1ccc(-c2ccco2)nn1 gave cell number change of -9.57

###

- ASSAY REMARKS: qHTS Assay for Lipid Storage Modulators in Drosophila S3 Cells
- CONDITION INFO: BODIPY lipid droplet fluorescence, 18-24 h, cells fed with added oleic acid; series mostly up to 46.1 µM
Hit rate of the full screen: of about 320,000 compounds, about 2,100 (0.66%) were called active. Roughly 53% stayed inconclusive and do not appear here. The call rests on the fitted dose curve; in most records, active means well fitted inhibition curve with a large enough effect in the signal ratio, with a control signal flat (not every such curve was filed as active); inconclusive means small, poorly fitted or top-dose-only effect, or effect the other way, or a change in a side signal; inactive means flat fitted curve, though single readings scatter; the % refers to the signal ratio. The full list was thinned out, with actives kept by preference.
Select the correct class. Options are class 1 for active, class 0 for inactive and nothing else.

As a guide, the following entries are already answered.
O=C(Nc1ccccn1)c1sc2cccc(F)c2c1Cl : class 0
CC1=C(C(=O)Nc2ccccc2)C(c2cccs2)NC(=O)N1 (stereo not given) : class 0
CCOC(=O)C(NC(=O)NC1CCCCC1)(c1ccccc1)C(F)(F)F (stereo not given) : class 1
COc1ccc(COC(=O)c2sc3nc4n(c(=O)c3c2C)CCC4)cc1 : class 0
CCOC(=O)c1sc2nc3n(c(=O)c2c1C)CCCCC3 : class 0

Here is the next item to consider.
Please share the test call associated with COc1ccc(CCNC(=O)COc2nncc3ccccc23)cc1 . class 0

###

Quick list: cell number change per entry.
- ASSAY REMARKS: qHTS Assay for Lipid Storage Modulators in Drosophila S3 Cells;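 for cell number change: cells counted by Cell Tracker Red CMTPX staining in the red channel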
- CONDITION INFO: BODIPY lipid droplet fluorescence, 18-24 h, cells fed with added oleic acid; measured here: cell count max response
Screen size: about 320,000 compounds; about 2,100 (0.66%) were called active. Roughly 53% stayed inconclusive and do not appear here. The full list was thinned out, with actives kept by preference.
Numeric only. Scale: %

COc1ccccc1N1CCN(C(=O)/C=C/c2cccc([N+](=O)[O-])c2)CC1 : 9.07
CCCCN1C(=O)NC(NC(=O)C2CC2)(C(F)(F)F)C1=O (configuration not stated) : 15
O=C(/C=C/c1cccc([N+](=O)[O-])c1)N1CCN(C(=O)c2ccco2)CC1 : 23.6
CN(CC(=O)Nc1ccc(F)cc1)C(=O)c1ccc(N2C(=O)CCC2=O)cc1 : 5.41
COCC(C)NC(=O)C(C)N1c2cccc3cccc(c23)S1(=O)=O (configuration not stated) : 3.31
CC1(C)Cc2c(sc(NC(=O)C(=O)NCC3CCCO3)c2C(N)=O)CO1 (configuration not stated) : -4.25
CC12CCC(c3c(C(=O)O)nn(-c4ccccc4)c31)C2(C)C (configuration not stated) : 7.24
COc1cccc(-c2nn(-c3ccc(C)cc3)cc2C(=O)N(C)CC(=O)Nc2cccc(F)c2)c1 : -27.2

Sample CN(C)c1ccc(/C=C/C(=O)c2ccc3c(c2)OCCO3)cc1[N+](=O)[O-] ; cell number change observed: 33.3

Query COC(=O)c1ccncc1C(=O)Nc1ccc(Oc2ncc(C(F)(F)F)cc2Cl)cc1 yields cell number change of -10.1

The reported cell number change of the compound CC1CC1C(=O)N(C)CC(=O)Nc1cccc(F)c1 (configuration not stated) was -4.04
